- Tested on: PDC-DUC18828
- measurement-description: cell viability relative to DMSO control (compound alone) (fraction); PDC-DUC18828 is a patient-derived cholangiocarcinoma cell line; higher = less growth inhibition
- condition-details: 1 µM; 72 h
In all, about 2,000 compounds were measured (“cell viability relative to DMSO control (compound alone)”: median about 0.98, lowest 2% from about 0.23 on). Shown is part of a subset that was picked to be rich in the lowest values.

{"molecule": "CCN(CC)C(=O)c1ccc(C2=CC3(CCNCC3)Oc3cccc(O)c32)cc1", "assay-system": "PDC-DUC18828", "cell viability": 0.966}
{"molecule": "Cc1cc(SCc2sc(-c3ccc(C(F)(F)F)c(F)c3)nc2C)ccc1OCC(=O)O", "assay-system": "PDC-DUC18828", "cell viability": 1.04}
{"molecule": "CNCC(O)c1ccc(O)cc1 (configuration not stated) [Synephrine]", "assay-system": "PDC-DUC18828", "cell viability": 1.02}
{"molecule": "C/C=C(\\C)C(=O)N[C@@H](c1ccccc1)[C@@H](O)C(=O)O[C@H]1C[C@@]2(O)[C@@H](OC(=O)c3ccccc3)[C@@H]3[C@]4(OC(C)=O)CO[C@@H]4C[C@H](O)[C@@]3(C)C(=O)[C@H](OC(C)=O)C(=C1C)C2(C)C", "assay-system": "PDC-DUC18828", "cell viability": 0.24}
{"molecule": "CC[C@H](C)[C@@H]([C@@H](CC(=O)N1CCC[C@H]1[C@H](OC)[C@@H](C)C(=O)N[C@H](C)[C@@H](O)c1ccccc1)OC)N(C)C(=O)[C@@H](NC(=O)[C@@H](NC)C(C)C)C(C)C", "assay-system": "PDC-DUC18828", "cell viability": 0.261}
{"molecule": "Cc1cccc([C@H](C)c2c[nH]cn2)c1C", "assay-system": "PDC-DUC18828", "cell viability": 0.973}
{"molecule": "CCCN1CCO[C@@H]2c3cc(O)ccc3OC[C@H]21", "assay-system": "PDC-DUC18828", "cell viability": 0.937}

All figures here come from the supplement of paper PMC9588766.
